# credit: patent US10729701B2

System: S. aureus Methicillin-resistant
test method notes: Minimum inhibitory concentration (MIC), microplate dilution
Format: cell-based
measurement setup: Staphylococcus aureus; Table I; Mueller-Hinton medium, 37° C., 24 h
Examples of molecules with documented MIC follow.
measurement kind: MIC (µg/mL)

{"molecule": "CC(C)CCC[C@@H](C)[C@H]1CCC2C3C(CC[C@@]21C)[C@@]1(C)CC[C@H](NCCCCN)C[C@@H]1C[C@H]3O (stereo partly shown)", "test system": "S. aureus Methicillin-resistant", "numeric result": 4}
{"molecule": "CC(C)CCC[C@@H](C)[C@H]1CCC2C3C(CC[C@@]21C)[C@@]1(C)CC[C@H](NCCCNCCCCNCCCN)C[C@@H]1C[C@H]3O (stereo partly drawn) [SA-1, 3β-Spermino-7α-hydroxy-5α-cholestane]", "test system": "S. aureus Methicillin-resistant", "numeric result": 2}
{"molecule": "CC(C)CCC[C@@H](C)[C@H]1CCC2C3C(CC[C@@]21C)[C@@]1(C)CC[C@H](NCCN(CCN)CCN)C[C@@H]1C[C@H]3O (stereo partly shown)", "test system": "S. aureus Methicillin-resistant", "numeric result": 5}
{"molecule": "CC(C)CCC[C@@H](C)[C@H]1CCC2C3C(CC[C@@]21C)[C@@]1(C)CC[C@H](NCCCNCCCCNCCCN)C[C@@H]1C[C@@H]3O (stereo partly drawn) [SA-2, 3β-Spermino-7β-hydroxy-5α-cholestane]", "test system": "S. aureus Methicillin-resistant", "numeric result": 2}
{"molecule": "CC(C)CCC[C@@H](C)[C@H]1CCC2C3C(CC[C@@]21C)[C@@]1(C)CC[C@H](NCCCN)C[C@@H]1C[C@H]3O (stereo partly shown)", "test system": "S. aureus Methicillin-resistant", "numeric result": 2}
{"molecule": "CC(C)CCC[C@@H](C)[C@H]1CCC2C3C(CC[C@@]21C)[C@@]1(C)CC[C@H](NCCCNCCCN)C[C@@H]1C[C@@H]3O (stereo partly shown)", "test system": "S. aureus Methicillin-resistant", "numeric result": 2.5}
{"molecule": "CC(C)[C@@H](CC[C@@H](C)[C@H]1CC[C@H]2[C@@H]3[C@H](O)C[C@H]4C[C@@H](NCCCNCCCCN)CC[C@]4(C)[C@H]3CC[C@]12C)OS(=O)(=O)O", "test system": "S. aureus Methicillin-resistant", "numeric result": 4}

* * *

Test system: P. aeruginosa ATCC 27853
test method notes: Minimum inhibitory concentration (MIC), microplate dilution
Type: cell-based
measurement setup: Pseudomonas aeruginosa, ATCC27853; Table I; Mueller-Hinton medium, 37° C., 24 h
The following molecules are shown together with reported MIC values.

{"molecule": "CC(C)CCC[C@@H](C)[C@H]1CCC2C3C(CC[C@@]21C)[C@@]1(C)CC[C@H](NCCCNCCCCNCCCN)C[C@@H]1C[C@@H]3O (stereo partly drawn) [SA-2, 3β-Spermino-7β-hydroxy-5α-cholestane]", "unit text": "µg/mL", "MIC": 32}
{"molecule": "CC(C)CCC[C@@H](C)[C@H]1CCC2C3C(CC[C@@]21C)[C@@]1(C)CC[C@H](NCCCCN)C[C@@H]1C[C@H]3O (stereo partly shown)", "unit text": "µg/mL", "MIC": 32}
{"molecule": "CC(C)CCC[C@@H](C)[C@H]1CCC2C3C(CC[C@@]21C)[C@@]1(C)CC[C@H](NCCCNCCCCNCCCN)C[C@@H]1C[C@H]3O (stereo partly drawn) [SA-1, 3β-Spermino-7α-hydroxy-5α-cholestane]", "unit text": "µg/mL", "MIC": 32}
{"molecule": "CC(C)CCC[C@@H](C)[C@H]1CCC2C3C(CC[C@@]21C)[C@@]1(C)CC[C@H](NCCCN)C[C@@H]1C[C@H]3O (stereo partly shown)", "unit text": "µg/mL", "MIC": 32}
{"molecule": "CC(C)CCC[C@@H](C)[C@H]1CCC2C3C(CC[C@@]21C)[C@@]1(C)CC[C@H](NCCN(CCN)CCN)C[C@@H]1C[C@H]3O (stereo partly shown)", "unit text": "µg/mL", "MIC": 40}
{"molecule": "CC(C)CCC[C@@H](C)[C@H]1CCC2C3C(CC[C@@]21C)[C@@]1(C)CC[C@H](NCCCNCCCN)C[C@@H]1C[C@@H]3O (stereo partly shown)", "unit text": "µg/mL", "MIC": 40}
{"molecule": "CC(C)[C@@H](CC[C@@H](C)[C@H]1CC[C@H]2[C@@H]3[C@H](O)C[C@H]4C[C@@H](NCCCNCCCCN)CC[C@]4(C)[C@H]3CC[C@]12C)OS(=O)(=O)O", "unit text": "µg/mL", "MIC": 20}
